// provenance: patent US20240336683A1

Target: T1, human Siglec15-Fc fusion protein (human, UniProt Q6ZMC9 20-263)
T1 construct: Bought protein (Acro #SG5-H5253 is named for the selection); also called recombinant Siglec 15-Fc fusion protein (Acro #SG5-H5253); human Siglec15-Fc protein; not shown: Fc part of the bought fusion protein
T1 sequence (looked up): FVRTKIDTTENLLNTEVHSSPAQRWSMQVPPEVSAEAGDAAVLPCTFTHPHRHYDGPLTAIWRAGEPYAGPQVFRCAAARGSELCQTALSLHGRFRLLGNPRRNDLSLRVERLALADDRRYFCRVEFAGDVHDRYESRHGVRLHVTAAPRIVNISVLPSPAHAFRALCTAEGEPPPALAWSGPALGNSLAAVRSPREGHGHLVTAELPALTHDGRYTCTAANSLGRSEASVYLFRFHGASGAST
Assay: ELISA; Siglec15-Fc captured by anti-hFc, scFv titrated, anti-Flag HRP
Measured pEC50 values are reported for all entries that follow.
pEC50 here: minus log base 10 of the concentration, concentration in moles per litre.

Solved entries (count: 2):
2020EP032-B03 scFv (scFv, V domains shown, Tested as a single-chain scFv made in E. coli with a C-terminal flag and 6x His tag) VH: QVQLQQWGAGLLKPSETLSLTCAVYGGSFSGYYWSWIRQPPGKGLEWIGEINHSGSTNYNPSLKSRVTISVDTSKNQFSLKLSSVTAADTAVYYCARGPLRKYYDFWSGSRNYYYYGMDVWGQGTTVTVSS VL: QPVLTQDPAVSVALGQTVRITCQGDSLRSNYASWYQLKPGQAPVLVIYDKNNRPSGIPDRFSGSNSGNTASLTIAGAQAEDEADYYCTSRDSSGTVFGGGTKLTVL ... 8.75
2020EP032-A08 scFv (scFv, V domains shown, Tested as a single-chain scFv made in E. coli with a C-terminal flag and 6x His tag) VH: QVQLQQWGAGLLKPSETLSLTCAVYGGSFSGYYWSWIRQPPGKGLEWIGEINHSGSTNYNPSLKSRVTISVDTSKNQFSLKLSSVTAADTAVYYCARGVYYYDSSGPRDYFDYWGQGTLVTVSS VL: DIVMTQSPSSLSASVGDRVTITCQASQDISNYLNWYQQKPGKAPKLLIYDASNLKTGVPSRFSGSGSGTDFTFTITSLQPEDIGTYFCQQYGNLPYTFGQGTKLEIK ... 8.23

Switching to the query record.
Give its pEC50 value. Item: 2020EP085-G5 scFv (scFv, V domains shown, Tested as a single-chain scFv made in E. coli with a C-terminal flag and 6x His tag) VH: QVQLVQSGAEVKKPGASVKVSCKASGYTFTDYYMHWVRQAPGQGLEWMGWINPNSGGTNYAQKFQGRVTMTRDTSITTAYMELSWLRSDDTAVYYCAREVGTTTTGVDYWGQGTLVTVSS VL: VIWMTQSPSSLSASVGDRVTFTCQASQDINIYLTWYQIKPGKAPKVLIYDASTLESGVPSRFSGSGFGTHFVFTISSLQPEDFATYYCQHYDSLPLTFGGGTKVEIK
8.48
